Values from ChEMBL document CHEMBL4219161

molecular target: Amyloid-beta precursor protein (Homo sapiens); test: Modulation of human wild-type APP695 expressed in SH-SY5Y cells assessed as inhibition of amyloid beta (1 to 40 residues) production measured after 24 hrs
Sequence (P05067 whole entry, the tested form may be a part): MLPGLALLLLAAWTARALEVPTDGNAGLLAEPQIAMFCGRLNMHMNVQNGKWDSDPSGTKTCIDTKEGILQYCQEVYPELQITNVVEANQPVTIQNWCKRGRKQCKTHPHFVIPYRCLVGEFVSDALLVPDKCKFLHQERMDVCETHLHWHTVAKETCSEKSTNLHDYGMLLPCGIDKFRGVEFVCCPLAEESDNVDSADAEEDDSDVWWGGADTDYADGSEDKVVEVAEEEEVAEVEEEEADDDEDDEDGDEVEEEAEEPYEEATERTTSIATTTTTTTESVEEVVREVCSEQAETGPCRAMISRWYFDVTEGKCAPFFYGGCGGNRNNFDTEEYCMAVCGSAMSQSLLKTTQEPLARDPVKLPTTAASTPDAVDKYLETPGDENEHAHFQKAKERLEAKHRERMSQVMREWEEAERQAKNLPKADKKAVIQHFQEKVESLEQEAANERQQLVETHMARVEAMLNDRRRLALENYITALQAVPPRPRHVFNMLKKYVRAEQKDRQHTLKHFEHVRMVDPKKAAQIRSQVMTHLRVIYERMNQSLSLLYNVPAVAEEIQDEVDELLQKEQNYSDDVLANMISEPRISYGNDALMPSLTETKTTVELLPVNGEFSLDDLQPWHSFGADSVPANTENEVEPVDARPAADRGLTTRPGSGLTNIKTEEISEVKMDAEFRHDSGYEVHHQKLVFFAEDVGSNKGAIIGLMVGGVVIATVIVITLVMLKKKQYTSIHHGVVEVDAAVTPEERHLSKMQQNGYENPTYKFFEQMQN
attributeMeasured: IC50

Reference set, count: 6
// map "CN1CCN(Cc2ccccc2-c2cc(CNCCN3CCCCC3)cc(CNCCN3CCCCC3)c2)CC1" to recorded IC50 (system: Amyloid-beta precursor protein (Homo sapiens))
> 10 µM

// map "CN(C)Cc1ccccc1-c1cc(C(=O)NCCN2CCCCC2)cc(C(=O)NCCN2CCCCC2)c1" to recorded IC50 (system: Amyloid-beta precursor protein (Homo sapiens))
> 10 µM

// map "CN(C)Cc1ccccc1-c1cc(CNCCN2CCCCC2)cc(CNCCN2CCCCC2)c1" to recorded IC50 (system: Amyloid-beta precursor protein (Homo sapiens))
> 10 µM

// map "c1ccc(-c2cc(CNCCN3CCCCC3)cc(CNCCN3CCCCC3)c2)c(CN2CCCCC2)c1" to recorded IC50 (system: Amyloid-beta precursor protein (Homo sapiens))
> 10 µM

// map "CN1CCN(Cc2ccccc2-c2cc(C(=O)NCCN3CCCCC3)cc(C(=O)NCCN3CCCCC3)c2)CC1" to recorded IC50 (system: Amyloid-beta precursor protein (Homo sapiens))
> 10 µM

// map "Clc1ccc2c(Nc3cc(CN4CCOCC4)cc(NCCN4CCCCC4)c3)ccnc2c1" to recorded IC50 (system: Amyloid-beta precursor protein (Homo sapiens))
2.5 µM

Next:
// map "O=C(NCCN1CCCCC1)c1cc(C(=O)NCCN2CCCCC2)cc(-c2ccccc2CN2CCCCC2)c1" to recorded IC50 (system: Amyloid-beta precursor protein (Homo sapiens))
6.2 µM

// map "c1ccc(-c2cc(CNCCN3CCCCC3)cc(CNCCN3CCCCC3)c2)c(CN2CCOCC2)c1" to recorded IC50 (system: Amyloid-beta precursor protein (Homo sapiens))
> 10 µM

// map "CN1CCN(Cc2ccccc2Nc2cc(CNCCN3CCCCC3)cc(CNCCN3CCCCC3)c2)CC1" to recorded IC50 (system: Amyloid-beta precursor protein (Homo sapiens))
> 10 µM

// map "CN(C)Cc1ccccc1Nc1cc(CNCCN2CCCCC2)cc(CNCCN2CCCCC2)c1" to recorded IC50 (system: Amyloid-beta precursor protein (Homo sapiens))
> 10 µM

// map "O=C(NCCN1CCCCC1)c1cc(Nc2ccccc2CN2CCOCC2)cc(C(=O)NCCN2CCCCC2)c1" to recorded IC50 (system: Amyloid-beta precursor protein (Homo sapiens))
> 10 µM

// map CCN(CC)CCCC(C)Nc1ccnc2cc(Cl)ccc12 (configuration not stated) to recorded IC50 (system: Amyloid-beta precursor protein (Homo sapiens))
7 µM
